- Species on record: Rattus norvegicus
- protocol: Concentration required to block Ca+2-induced contraction of K+ depolarized rat aorta
- Type: functional
pIC50: −log10 of the molar value.
testReadout: pIC50

The cases that follow already have their pIC50 on record.
compound	dataValue
CCO/C(O)=C1\C(COCCn2cc(N)n(C)c2=O)=NC(C)=C(C(=O)OC)C1c1ccccc1Cl (stereo not given)	7.60
CCO/C(O)=C1\C(COCCn2c(N)cnc2O)=NC(C)=C(C(=O)OC)C1c1ccccc1Cl (stereo not given)	6.80
CCO/C(O)=C1\C(COCCn2cc(C(N)=O)nn2)=NC(C)=C(C(=O)OC)C1c1ccccc1Cl (stereo not given)	7.70
CCO/C(O)=C1\C(COCCn2cc(N)nc2O)=NC(C)=C(C(=O)OC)C1c1ccccc1Cl (stereo not given)	7.50
CCO/C(O)=C1\C(COCCn2c(C)nc(C)c2C)=NC(C)=C(C(=O)OC)C1c1ccccc1Cl (stereo not given)	8.30
CCO/C(O)=C1\C(COCCn2cnc3ccccc32)=NC(C)=C(C(=O)OC)C1c1ccccc1Cl (stereo not given)	7.70
CCOC(=O)c1cnnn1CCOCC1=NC(C)=C(C(=O)OC)C(c2ccccc2Cl)/C1=C(\O)OCC (stereo not given)	7.00
CCOC(=O)c1cn(CCOCC2=NC(C)=C(C(=O)OC)C(c3ccccc3Cl)/C2=C(\O)OCC)nn1 (stereo not given)	7.30
CCO/C(O)=C1\C(COCCn2nncc2C(N)=O)=NC(C)=C(C(=O)OC)C1c1ccccc1Cl (stereo not given)	7.00
CCO/C(O)=C1\C(COCCn2ccnn2)=NC(C)=C(C(=O)OC)C1c1ccccc1Cl (stereo not given)	7.80

a: CCO/C(O)=C1\C(COCCn2ccnc2C)=NC(C)=C(C(=O)OC)C1c1ccccc1Cl (stereo not given)
b: CCO/C(O)=C1\C(COCCn2nncc2C(N)=O)=NC(C)=C(C(=O)OC)C1c1cccc(Cl)c1Cl (stereo not given)
Qu. Could you kindly indicate whether a or b has the higher pIC50 value? Lab log: write the label of the selected item as the result.
Ans. a
(a: 8.60, b: 7.80)
